target: hP2X2/3H (Homo sapiens, UniProt P56373+Q9UBL9); construct: expressed in transfected cells; host or cells: e.g. HEK293 or 1321N1; test: Calcium uptake assay (P2X antagonist assay), P2X2/3 heteromer; type: cell-based; conditions: calcium uptake assay, hP2X2/3H; read-out: IC50 hP2X2/3H (nM), Ca Influx
Sequence (Q9UBL9 whole entry, one chain of several): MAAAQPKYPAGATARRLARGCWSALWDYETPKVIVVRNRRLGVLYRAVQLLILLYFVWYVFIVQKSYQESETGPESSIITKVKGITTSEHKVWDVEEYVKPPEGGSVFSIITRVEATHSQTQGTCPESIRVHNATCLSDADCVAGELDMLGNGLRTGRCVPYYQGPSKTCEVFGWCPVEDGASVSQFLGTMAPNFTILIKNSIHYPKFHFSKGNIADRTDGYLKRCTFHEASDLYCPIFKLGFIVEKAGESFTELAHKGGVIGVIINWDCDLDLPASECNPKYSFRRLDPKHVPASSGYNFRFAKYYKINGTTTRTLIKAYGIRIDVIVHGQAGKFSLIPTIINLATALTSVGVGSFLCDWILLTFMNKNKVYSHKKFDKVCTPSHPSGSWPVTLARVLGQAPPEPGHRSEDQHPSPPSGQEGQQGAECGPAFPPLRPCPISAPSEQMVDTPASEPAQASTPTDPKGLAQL
IC50 values for the compounds below.
readout: IC50

compound="Cc1ccc(-c2cc(C(=O)N[C@H](C)c3cnc(C)nc3)cc(C(=O)N3CCC3)c2)cc1 [Compound 78]" measurement_target="hP2X2/3H (Homo sapiens, UniProt P56373+Q9UBL9)" readout=IC50 meas_value="< 100 nM"
compound="Cc1ccc(-c2cc(C(=O)NCc3ccc(C)c(S(C)(=O)=O)c3)cc(S(C)(=O)=O)c2)cc1 [Compound 36]" measurement_target="hP2X2/3H (Homo sapiens, UniProt P56373+Q9UBL9)" readout=IC50 meas_value="< 100 nM"
compound="Cc1ccc(-c2cc(C(=O)NCc3ccc(C)nc3)cc(C(=O)N3CC[C@H](N(C)C)C3)c2)cc1 [Compound 142]" measurement_target="hP2X2/3H (Homo sapiens, UniProt P56373+Q9UBL9)" readout=IC50 meas_value="100 to 500 nM"
compound="Cc1ccc(-c2cc(C(=O)NCc3ccc(C)nc3)cc(C(=O)N(C)CC3CCNCC3)c2)cc1 [Compound 169]" measurement_target="hP2X2/3H (Homo sapiens, UniProt P56373+Q9UBL9)" readout=IC50 meas_value="100 to 500 nM"
compound="Cc1ccc(-c2cc(C(=O)N[C@H](C)c3cnc(C)nc3)cc(C(=O)N3CCCC3)c2)nc1 [Compound 174]" measurement_target="hP2X2/3H (Homo sapiens, UniProt P56373+Q9UBL9)" readout=IC50 meas_value="< 100 nM"
compound="Cc1ccc(-c2cc(C(N)=O)cc(C(=O)NCc3ccc(C)nc3)c2)cc1 [Compound 161]" measurement_target="hP2X2/3H (Homo sapiens, UniProt P56373+Q9UBL9)" readout=IC50 meas_value="100 to 500 nM"
compound="Cc1ccc(-c2cc(C(=O)NCc3ccc(C)c(S(C)(=O)=O)c3)cc(C(=O)N3CCCC3)c2)cc1 [Compound 71]" measurement_target="hP2X2/3H (Homo sapiens, UniProt P56373+Q9UBL9)" readout=IC50 meas_value="< 100 nM"

###

Target: hP2X3 (Homo sapiens, UniProt P56373)
Construct: expressed in transfected cells; host or cells: e.g. HEK293 or 1321N1
Sequence (P56373 1-397): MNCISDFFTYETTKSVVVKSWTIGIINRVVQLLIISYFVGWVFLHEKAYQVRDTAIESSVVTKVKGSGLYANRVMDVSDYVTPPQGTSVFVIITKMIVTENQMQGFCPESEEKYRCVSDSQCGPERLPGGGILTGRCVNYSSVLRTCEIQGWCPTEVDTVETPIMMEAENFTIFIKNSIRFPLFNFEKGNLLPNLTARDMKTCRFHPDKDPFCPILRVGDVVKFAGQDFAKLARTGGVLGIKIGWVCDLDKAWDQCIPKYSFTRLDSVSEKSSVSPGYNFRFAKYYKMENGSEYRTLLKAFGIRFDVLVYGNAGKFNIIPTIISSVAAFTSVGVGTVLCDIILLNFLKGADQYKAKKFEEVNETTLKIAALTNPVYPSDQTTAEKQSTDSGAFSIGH
Assay: Calcium uptake assay (P2X antagonist assay), P2X3 homomer
Type: cell-based
Details: Ca influx (calcium uptake assay), hP2X3; read-out: IC50 hP2X3
pIC50: −log10 of the molar value.
The compounds listed here are annotated with their pIC50.
readout: pIC50

compound=Cc1ccc(-c2cc(C(=O)N[C@H](C)c3cnc(C)nc3)cc(S(C)(=O)=O)c2)nc1 readout=pIC50 meas_value="> 7.00"
compound="Cc1ccc(-c2cc(C(=O)N[C@H](C)c3cnc(C)nc3)cc(C(O)c3ccccc3)c2)nc1 (stereo partly shown)" readout=pIC50 meas_value="> 7.00"
compound=Cc1ccc(-c2cc(Oc3ncc(CO)s3)cc(C(=O)N[C@H](C)c3ccc(C)nc3)c2)nc1 readout=pIC50 meas_value="> 7.00"
compound="Cc1ccc(-c2cc(C(=O)N[C@H](C)c3ccc(C)nc3)cc(C(O)c3ccccn3)c2)c(C#N)c1 (stereo partly shown)" readout=pIC50 meas_value="> 7.00"
compound="COCC(CO)Oc1cc(C(=O)N[C@H](C)c2ccc(C)nc2)cc(-c2ccc(C)cc2C#N)c1 (stereo partly shown)" readout=pIC50 meas_value="> 7.00"
compound="COCC(CO)Oc1cc(C(=O)N[C@H](C)c2ccc(C)nc2)cc(-c2ccc(C)cn2)c1 (stereo partly shown)" readout=pIC50 meas_value="> 7.00"
compound="Cc1ccc(-c2cc(C(=O)NCc3ccc(C)nc3)cc(C(O)CN(C)CCO)c2)cc1 (stereo not shown)" readout=pIC50 meas_value="> 7.00"
compound=COCCOc1cc(C(=O)N[C@H](C)c2cnc(C)nc2)cc(-c2ccc(C)cc2)c1 readout=pIC50 meas_value="> 7.00"
compound=Cc1ccc(-c2cc(C(=O)NCc3ccn4ccnc4c3)cc(S(C)(=O)=O)c2)nc1 readout=pIC50 meas_value="> 7.00"
compound="Cc1ccc(-c2cc(C(=O)NCc3cnc(C)nc3)cc(C(O)c3ccccn3)c2)cc1 (stereo not shown)" readout=pIC50 meas_value="> 7.00"
compound=COc1ccc([C@@H](CCO)NC(=O)c2cc(-c3ccc(C)cc3)cc(S(C)(=O)=O)c2)cn1 readout=pIC50 meas_value="> 7.00"
compound=COCCOc1cc(C(=O)N[C@H](C)c2cnc(C)nc2)cc(-c2ccc(C)cc2C#N)c1 readout=pIC50 meas_value="> 7.00"
compound="Cc1ccc(-c2cc(OC3CNCC3O)cc(C(=O)N[C@H](C)c3ccc(C)nc3)c2)c(C#N)c1 (stereo partly shown)" readout=pIC50 meas_value="> 7.00"
compound=Cc1ccc(-c2cc(C(=O)NCc3ncc(C(F)(F)F)cc3Cl)cc(S(C)(=O)=O)c2)nc1 readout=pIC50 meas_value="> 7.00"
compound=Cc1ncc(CNC(=O)c2cc(C(=O)N3CCCC3)cc(-c3ccc(Br)cc3)c2)cn1 readout=pIC50 meas_value="> 7.00"
compound=Cc1ccc(-c2cc(C(=O)N[C@H](CO)c3ccc(C(F)(F)F)nc3)cc(S(C)(=O)=O)c2)cc1 readout=pIC50 meas_value="> 7.00"
compound=Cc1ccc(-c2cc(OC(F)(F)F)cc(C(=O)NCc3ccc(C)nc3)c2)nc1 readout=pIC50 meas_value="6.30 to 7.00"
compound="Cc1ccc(-c2cc(OCC3COCCO3)cc(C(=O)N[C@H](C)c3ccc(C)nc3)c2)cc1 (stereo partly shown)" readout=pIC50 meas_value="> 7.00"
compound=Cc1ccc(-c2cc(Oc3nccs3)cc(C(=O)N[C@H](C)c3ccc(C)nc3)c2)c(C#N)c1 readout=pIC50 meas_value="> 7.00"
compound=Cc1ccc(-c2cc(Oc3nc(Cl)cs3)cc(C(=O)N[C@H](C)c3ccc(C)nc3)c2)cc1 readout=pIC50 meas_value="6.30 to 7.00"
compound=Cc1ccc(-c2cc(Oc3nccs3)cc(C(=O)NCc3ccc(C)nc3)c2)cc1 readout=pIC50 meas_value="6.30 to 7.00"
compound=Cc1ccc(-c2cc(C(=O)NCc3ccc(C)nc3)cc(S(=O)(=O)C(C)C)c2)cc1 readout=pIC50 meas_value="> 7.00"
compound="Cc1ccc(-c2cc(C(=O)NC(c3ccc(C)nc3)C(F)(F)F)cc(C(=O)N3CCCC3)c2)cc1 (stereo not shown)" readout=pIC50 meas_value="< 6.00"
compound="Cc1ccc(-c2cc(C(=O)NCc3ccc(C)nc3)cc(C(O)c3ccccc3)c2)cc1 (stereo not shown)" readout=pIC50 meas_value="6.30 to 7.00"
compound="Cc1ccc(-c2cc(OC3CCOC3)cc(C(=O)N[C@H](C)c3cnc(C)nc3)c2)cc1 (stereo partly shown)" readout=pIC50 meas_value="> 7.00"
compound="Cc1ccc(-c2cc(C(=O)N[C@H](C)c3cnc(C)nc3)cc(C(O)c3nccs3)c2)c(C#N)c1 (stereo partly shown)" readout=pIC50 meas_value="> 7.00"
compound="Cc1ccc(-c2cc(C(=O)N[C@H](C)c3ccc(C)nc3)cc(C(O)C(F)(F)F)c2)c(C#N)c1 (stereo partly shown)" readout=pIC50 meas_value="> 7.00"
compound=Cc1ccc(-c2cc(CO)cc(C(=O)NCc3ccc(C)nc3)c2)c(C#N)c1 readout=pIC50 meas_value="> 7.00"
compound="Cc1ccc(-c2cc(OCC3COCCO3)cc(C(=O)N[C@H](C)c3ccc(C)nc3)c2)nc1 (stereo partly shown)" readout=pIC50 meas_value="> 7.00"
compound=Cc1ccc(-c2cc(C(=O)N[C@H](C)c3cnc(C)nc3)cc(S(=O)(=O)C3CCCC3)c2)cc1 readout=pIC50 meas_value="> 7.00"
compound=Cc1ccc(-c2cc(Oc3nccs3)cc(C(=O)N[C@H](C)c3ccc(C)nc3)c2)nc1 readout=pIC50 meas_value="> 7.00"
